Experiment Summary: Toxicity in thioglycolate-induced mouse peritoneal macrophages assessed as reduction in cell viability after 24 hrs by MTT assay
Type: cell-based
Condition Notes: peritoneal macrophage cell
Measured Property: Activity

> print(dat)
                              smiles.string  measured.property     result
1  COC(=O)[C@]1(C)CCC[C@@]2(C)C3=CC[C@@H]4C[C@]3(C=C4C=O)CC[C@H]12           Activity      Toxic
2  C=C1[C@H]2CC3=C([C@H](C2)[C@@H]1O)[C@]1(C)CCC[C@@](C)(C(=O)OC)[C@H]1CC3           Activity  Non-toxic
3  C=C1C(=O)[C@@]23CC[C@H]4[C@@](C)(CCC[C@@]4(C)C(=O)OC)[C@@H]2CC[C@@H]1C3           Activity  Non-toxic
4  C=C1C(=O)[C@@]23CC[C@@H]4[C@](C)(C(=O)OC)CCC[C@@]4(C)C2=CC[C@@H]1C3           Activity  Non-toxic
